Overview of reported Rating across a group of molecules:
test system: Canis familiaris; assay: Degree of tachycardia in conscious normal dogs.; assay type: functional, Canis lupus familiaris

The cases that follow already have their Rating on record.
CC(OCC(O)CN1C(C)CCCC1C)c1ccccc1 (stereo unspecified)
<160 beats min-1
CC1CCCC(C)N1CC(O)CNC(c1ccccc1)c1ccccc1.Cl.Cl (stereo unspecified)
<160 beats min-1
COc1ccccc1C(OCC(O)CN1C(C)CCCC1C)c1ccccc1OC (stereo unspecified)
>200 beats min-1

Report Rating for Cc1ccccc1C(OCC(O)CN1C(C)CCCC1C)c1ccccc1C (stereo unspecified) please.
<160 beats min-1

Report Rating for CC1CCC(C)N1CC(O)COC(c1ccccc1)c1ccccc1 (stereo unspecified) please.
<160 beats min-1

Report Rating for C[N+](C)(C)CC(O)COC(c1ccccc1)c1ccccc1 (stereo unspecified) please.
>200 beats min-1

* * *

test system: Canis familiaris; experiment: Percent of normal beats 1 hr after 5 mg/kg given over 5 min by i.v. infusion.; type: functional, Canis lupus familiaris; settings: route intravenous
REPORTED ENDPOINT: Normal beats (%)
Report the value in % with no unit label.

Notebook entry, Canis familiaris assay: Normal beats of Cc1cccc(C)c1C(OCC(O)CN1C(C)CCCC1C)c1ccccc1 (stereo unspecified) = ?
16

Notebook entry, Canis familiaris assay: Normal beats of CC(OCC(O)CN1C(C)CCCC1C)c1ccccc1 (stereo unspecified) = ?
11

* * *

tested on: Canis familiaris; assay: […] 1 h after a dose of 5 mg/kg given intravenously over a 5-min period in normal dogs.; type: functional, Canis lupus familiaris; details: route intravenous
Overview of reported Heart rate across a group of compounds:
Report the value in beats min-1 with no unit label.

CC1CCCC(C)N1CC(O)COC(c1ccccc1)c1ccccc1 (stereo not given)
150

Notebook entry, Canis familiaris assay: Heart rate of CN(C)CC(O)COC(c1ccccc1)c1ccccc1.Cl (stereo not given) = ?
110

Notebook entry, Canis familiaris assay: Heart rate of CC(OCC(O)CN1C(C)CCCC1C)c1ccccc1 (stereo not given) = ?
144

Notebook entry, Canis familiaris assay: Heart rate of COc1ccccc1C(OCC(O)CN1C(C)CCCC1C)c1ccccc1OC (stereo not given) = ?
232

Notebook entry, Canis familiaris assay: Heart rate of C[N+](C)(C)CC(O)COC(c1ccccc1)c1ccccc1 (stereo not given) = ?
118

Notebook entry, Canis familiaris assay: Heart rate of CC1CCCC(C)[N+]1(C)CC(O)COC(c1ccccc1)c1ccccc1.[Cl-] (stereo not given) = ?
101

Notebook entry, Canis familiaris assay: Heart rate of Cc1ccccc1C(OCC(O)CN1C(C)CCCC1C)c1ccccc1C (stereo not given) = ?
142

Notebook entry, Canis familiaris assay: Heart rate of Cc1ccccc1C(OCC(O)CN1C(C)CCCC1C)c1ccccc1 (stereo not given) = ?
134

Notebook entry, Canis familiaris assay: Heart rate of CC1CCC(C)N1CC(O)COC(c1ccccc1)c1ccccc1 (stereo not given) = ?
102

Notebook entry, Canis familiaris assay: Heart rate of CC1CCCC(C)N1CC(O)CNC(c1ccccc1)c1ccccc1.Cl.Cl (stereo not given) = ?
122

* * *

system: Canis familiaris; assay: Percent of normal beats 1 hr after 5 mg/kg given over 5 min by i.v. infusion.; format: functional, Canis lupus familiaris; details: route intravenous
Note to self: values exactly at 30% are 1.0. So Normal beats at or above 30% is 1.0, below is 0.0.

Example entries and their recorded answers appear below.
Cc1ccccc1C(OCC(O)CN1CCCCC1C)c1ccccc1C.O=C(O)C(=O)O (stereo unspecified)
0.0
CC1CCC(C)N1CC(O)COC(c1ccccc1)c1ccccc1 (stereo unspecified)
0.0
COc1ccccc1C(OCC(O)CN1C(C)CCCC1C)c1ccccc1OC (stereo unspecified)
1.0

State whether the measured Normal beats reaches 30%, counting equality as reaching it, for CC1CCCC(C)N1CC(O)COC(c1ccccc1)c1ccccc1 (stereo unspecified)
1.0

State whether the measured Normal beats reaches 30%, counting equality as reaching it, for Cc1ccccc1C(OCC(O)CN1CCCCC1)c1ccccc1C.O=C(O)C(=O)O (stereo unspecified)
0.0

State whether the measured Normal beats reaches 30%, counting equality as reaching it, for Cc1ccccc1C(OCC(O)CN1C(C)CCCC1C)c1ccccc1C (stereo unspecified)
1.0

* * *

system: Canis familiaris; test: Activity rating following 5 mg/kg i.v. administration.; conditions: route intravenous
REPORTED ENDPOINT: Activity rating

The cases that follow already have their Activity rating on record.
CCN(CC)CC(=O)Nc1c(C)cccc1C.Cl
20
Cc1cccc(C)c1C(OCC(O)CN1C(C)CCCC1C)c1c(C)cccc1C (stereo unspecified)
47
Cc1ccccc1C(OCC(O)CN1CCCCC1)c1ccccc1C.O=C(O)C(=O)O (stereo unspecified)
21
CCN(CC)CCNC(=O)c1ccc(N)cc1.Cl [PROCAINAMIDE HYDROCHLORIDE]
52
Cc1cccc(C)c1C(OCC(O)CN1C(C)CCCC1C)c1ccccc1 (stereo unspecified)
8

Report Activity rating for CC(OCC(O)CN1C(C)CCCC1C)c1ccccc1 (stereo unspecified) please.
13

* * *

test system: Canis familiaris; assay: Period of tachycardiac effect in conscious normal dogs; type: functional, Canis lupus familiaris
Overview of reported Rating across a group of molecules:

Report Rating for CC1CCCC(C)[N+]1(C)CC(O)COC(c1ccccc1)c1ccccc1.[Cl-] (stereo unspecified) please.
<0.5 h

Report Rating for Cc1ccccc1C(OCC(O)CN1C(C)CCCC1C)c1ccccc1C (stereo unspecified) please.
<0.5 h

Report Rating for CC(OCC(O)CN1C(C)CCCC1C)c1ccccc1 (stereo unspecified) please.
>2 h

Report Rating for CC1CCCC(C)N1CC(O)CSC(c1ccccc1)c1ccccc1 (stereo unspecified) please.
<0.5 h

Report Rating for COc1ccccc1C(OCC(O)CN1C(C)CCCC1C)c1ccccc1OC (stereo unspecified) please.
>2 h

Report Rating for CC1CCCC(C)N1CC(O)CNC(c1ccccc1)c1ccccc1.Cl.Cl (stereo unspecified) please.
<0.5 h

* * *

test system: Canis familiaris; experiment: Activity rating following 5 mg/kg i.v. administration.; conditions: route intravenous
REPORTED ENDPOINT: Activity rating
Give only the figure.

The cases that follow already have their Activity rating on record.
Cc1ccccc1C(OCC(O)CN1C(C)CCCC1C)c1ccccc1 (stereo unspecified)
68
CN(C)CC(O)COC(c1ccccc1)c1ccccc1.Cl (stereo unspecified)
19
Cc1ccccc1C(OCC(O)CN1C(C)CCCC1C)c1ccccc1C (stereo unspecified)
51
CC1CCCC(C)N1CC(O)COC(c1ccccc1)c1ccccc1 (stereo unspecified)
56
CC1CCC(C)N1CC(O)COC(c1ccccc1)c1ccccc1 (stereo unspecified)
36

Report Activity rating for CC1CCCC(C)[N+]1(C)CC(O)COC(c1ccccc1)c1ccccc1.[Cl-] (stereo unspecified) please.
15

Report Activity rating for CC1CCCC(C)N1CC(O)CSC(c1ccccc1)c1ccccc1 (stereo unspecified) please.
51

Report Activity rating for C[N+](C)(C)CC(O)COC(c1ccccc1)c1ccccc1 (stereo unspecified) please.
9

Report Activity rating for CC1CCCC(C)N1CC(O)CNC(c1ccccc1)c1ccccc1.Cl.Cl (stereo unspecified) please.
44

Report Activity rating for COc1ccccc1C(OCC(O)CN1C(C)CCCC1C)c1ccccc1OC (stereo unspecified) please.
57

Report Activity rating for Cc1ccccc1C(OCC(O)CN1CCCCC1C)c1ccccc1C.O=C(O)C(=O)O (stereo unspecified) please.
36

* * *

system: Canis familiaris; assay: Percent of normal beats 1 hr after 5 mg/kg given over 5 min by i.v. infusion.; type: functional, Canis lupus familiaris; conditions: route intravenous
Overview of reported Normal beats across a group of molecules:

The cases that follow already have their Normal beats on record.
CN(C)CC(O)COC(c1ccccc1)c1ccccc1.Cl (centres undefined)
15%
CC1CCCC(C)N1CC(O)CSC(c1ccccc1)c1ccccc1 (centres undefined)
42%
CCN(CC)CC(=O)Nc1c(C)cccc1C.Cl
9%

Report Normal beats for Cc1cccc(C)c1C(OCC(O)CN1C(C)CCCC1C)c1c(C)cccc1C (centres undefined) please.
54%

* * *

tested on: Canis familiaris; assay: Percent of normal beats 1 hr after 5 mg/kg given over 5 min by i.v. infusion.; type: functional, Canis lupus familiaris; conditions: route intravenous
Label 1 when Normal beats < 30%; otherwise 0.

CCN(CC)CCNC(=O)c1ccc(N)cc1.Cl [PROCAINAMIDE HYDROCHLORIDE]
0
C[N+](C)(C)CC(O)COC(c1ccccc1)c1ccccc1 (stereo not given)
1
Cc1ccccc1C(OCC(O)CN1C(C)CCCC1C)c1ccccc1 (stereo not given)
0

Field: below-cutoff. Rule: recorded Normal beats strictly less than 30%. Subject: CC1CCCC(C)[N+]1(C)CC(O)COC(c1ccccc1)c1ccccc1.[Cl-] (stereo not given)
1
